# TESTED_ON: human LPA1 (Homo sapiens, UniProt Q92633)
# Construct: the full-length cDNA for human LPA1 was obtained by PCR of the reverse transcription reaction; expressed in transfected cells
# Sequence (Q92633 whole entry): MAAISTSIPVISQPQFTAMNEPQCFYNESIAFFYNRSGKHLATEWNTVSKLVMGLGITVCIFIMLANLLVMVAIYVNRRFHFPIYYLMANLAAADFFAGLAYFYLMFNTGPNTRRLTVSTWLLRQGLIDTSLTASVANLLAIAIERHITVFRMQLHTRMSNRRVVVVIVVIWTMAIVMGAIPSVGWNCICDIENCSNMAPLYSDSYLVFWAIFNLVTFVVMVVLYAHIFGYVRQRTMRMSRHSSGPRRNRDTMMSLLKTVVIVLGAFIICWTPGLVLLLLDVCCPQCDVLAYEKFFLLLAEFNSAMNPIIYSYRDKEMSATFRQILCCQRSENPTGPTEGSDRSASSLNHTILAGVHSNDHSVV
# ASSAY_NAME: LPA1 calcium flux assay
# Format: cell-based
# SETUP_CONDITIONS: CHO cells expressing human LPA1, stimulated with 10 nM LPA; read-out: HLPA1 Ca Flux IC50
MEASUREMENT_KIND: IC50

Determine from records and report IC50 for Cc1noc(-c2ccc(-c3ccc(C4(CC(=O)O)CC4)cc3)cc2)c1NC(C)CCc1ccccc1Cl (stereo not shown) [Compound 1-222] < 300 nM

Determine from records and report IC50 for Cc1noc(-c2ccc(-c3ccc(C4(C(=O)O)CC4)cc3)cc2)c1CCS(=O)(=O)Cc1ccccc1 [Compound 1-85] > 50000 nM

Determine from records and report IC50 for Cc1noc(-c2ccc(-c3ccc(C(C(=O)O)C(C)C)cc3)cc2)c1CSCCc1ccccc1 (stereo not shown) [Compound 1-137] < 300 nM

Determine from records and report IC50 for Cc1noc(-c2ccc(-c3ccc(C4(C(=O)O)CC4)cc3)cc2)c1C(O)COCc1ccccc1 (single isomer, unassigned) [Compound 1-198] < 300 nM

Determine from records and report IC50 for COC(CCCc1ccccc1)c1c(C)noc1-c1ccc(-c2ccc(C3(C(=O)O)CC3)cc2)cc1 (stereo not shown) [Compound 1-148] < 300 nM

Determine from records and report IC50 for Cc1noc(-c2ccc(-c3ccc(CCC(=O)O)cc3)cc2)c1NC(C)CCc1cccc(Cl)c1 (stereo not shown) [Compound 1-193] < 300 nM

Determine from records and report IC50 for Cc1noc(-c2ccc(-c3ccc(C4(C(=O)O)CC4)cc3)cc2)c1NC(=O)CCc1ccccc1 [Compound 1-4] 1000 to 50000 nM

Determine from records and report IC50 for Cc1noc(-c2ccc(-c3ccc(C4(C(=O)O)CC4)cc3)cc2)c1NC(=O)NCc1ccccc1F [Compound 1-12] < 300 nM

Determine from records and report IC50 for Cc1noc(-c2ccc(-c3ccc(C4(C(=O)O)CC4)cc3)cc2)c1COC(C)c1ccccc1 (stereo not shown) [Compound 1-47] 1000 to 50000 nM

Determine from records and report IC50 for Cc1noc(-c2ccc(-c3ccc(C4(C(=O)O)CC4)cc3)cc2)c1NC(=O)C(C)Oc1ccccc1 (stereo not shown) [Compound 1-17] 1000 to 50000 nM

Determine from records and report IC50 for Cc1noc(-c2ccc(-c3ccc(C(C)C(=O)O)cc3)cc2)c1CSCCc1ccccc1 (stereo not shown) [Compound 1-123] < 300 nM

---

Overview of reported IC50 across a group of molecules:
# TESTED_ON: human LPA1 (Homo sapiens, UniProt Q92633)
# Construct: the full-length cDNA for human LPA1 was obtained by PCR of the reverse transcription reaction
# ASSAY_NAME: LPA1 calcium flux assay
# SETUP_CONDITIONS: CHO cells expressing human LPA1, stimulated with 10 nM LPA; read-out: HLPA1 Ca Flux IC50

# count of solved cases: 6
INSERT INTO measurements (molecule, meas_value) VALUES
  ('Cc1noc(-c2ccc(-c3ccc(C4(C(=O)O)CC4)cc3)cc2)c1CCC(=O)N(C)c1ccccc1 [Compound 1-82]', '< 300 nM'),
  ('Cc1noc(-c2ccc(-c3ccc(C4(C(=O)O)CC4)cc3)cc2)c1Nc1ccccn1 [Compound 1-296]', '> 50000 nM'),
  ('Cc1noc(-c2ccc(-c3ccc(C4(C(=O)O)CC4)cc3)cc2)c1CNC(=O)NCc1ccccc1 [Compound 1-59]', '1000 to 50000 nM'),
  ('Cc1noc(-c2ccc(-c3ccc(C4(C(=O)O)CC4)cc3)cc2)c1C(O)C(=O)N(C)Cc1ccccc1 (stereo not shown) [Compound 1-258]', '< 300 nM'),
  ('Cc1noc(-c2ccc(-c3ccc(C4(C(=O)O)CC4)cc3)cc2)c1C=CCC(C)c1ccccc1 (stereo not shown) [Compound 1-110]', '< 300 nM'),
  ('Cc1noc(-c2ccc(-c3ccc(C4(CC(=O)O)CC4)cc3)cc2)c1NC(C)CCc1c(F)cccc1Cl (stereo not shown) [Compound 1-219]', '< 300 nM');

Now for another entry.
Determine from records and report IC50 for Cc1noc(-c2ccc(-c3ccc(C4(C(=O)O)CC4)cc3)cc2)c1C(=O)CCc1cccc(C(F)(F)F)c1 [Compound 1-160] 1000 to 50000 nM

Origin of the recorded values: patent US9624182B2
